From: paper PMC4132844

test system: CYP1A2 (expressed drug-metabolizing enzyme); experiment: TeamChip metabolism-induced toxicity assay, CYP1A2; assay type: cell-based; conditions: human
property.name: log10 IC50 at 48 h (log10 of the value in µM)
Scale: decimal log of IC50 at 48 h, IC50 at 48 h in µM.

{"molecule": "CN1CCN(CCCN2c3ccccc3Sc3ccc(C(F)(F)F)cc32)CC1", "log10 IC50 at 48 h": 2.08}
{"molecule": "Cc1c(C)c2c(c(C)c1O)CCC(C)(COc1ccc(CC3SC(=O)NC3=O)cc1)O2 (centres unmarked)", "log10 IC50 at 48 h": 1.59}
{"molecule": "Nc1c(CC(=O)O)cccc1C(=O)c1ccc(Br)cc1", "log10 IC50 at 48 h": 2.28}
{"molecule": "CC(C)C(=O)Nc1ccc([N+](=O)[O-])c(C(F)(F)F)c1 [Flutamide, flutamide]", "log10 IC50 at 48 h": 1.26}

Now for the molecule whose log10 IC50 at 48 h we want.
Query string: // fetch log10 IC50 at 48 h given entry CC(=O)Nc1ccc(O)cc1
Result string: 2.91

====

system: All Mix: CYP2C9, CYP2D6, CYP3A4, CYP1A2, CYP2E1, UGT1A4 (expressed); assay: TeamChip metabolism-induced toxicity assay, All Mix; format: cell-based; settings: human
In this section, each of the compounds is paired with its reported log10(IC50 at 48 h).
Scale: decimal log of IC50 at 48 h, IC50 at 48 h in µM.

Examples from the recorded data:
{"compound": "Nc1c(CC(=O)O)cccc1C(=O)c1ccc(Br)cc1", "tested.on": "All Mix: CYP2C9, CYP2D6, CYP3A4, CYP1A2, CYP2E1, UGT1A4 (expressed)", "log10(IC50 at 48 h)": 2.41}
{"compound": "CN1CCN(CCCN2c3ccccc3Sc3ccc(C(F)(F)F)cc32)CC1", "tested.on": "All Mix: CYP2C9, CYP2D6, CYP3A4, CYP1A2, CYP2E1, UGT1A4 (expressed)", "log10(IC50 at 48 h)": 2.04}
{"compound": "CC(=O)Nc1ccc(O)cc1", "tested.on": "All Mix: CYP2C9, CYP2D6, CYP3A4, CYP1A2, CYP2E1, UGT1A4 (expressed)", "log10(IC50 at 48 h)": 2.81}

Query string: // fetch log10(IC50 at 48 h) given entry Cc1c(C)c2c(c(C)c1O)CCC(C)(COc1ccc(CC3SC(=O)NC3=O)cc1)O2 (centres unmarked)
Result string: 1.79

Query string: // fetch log10(IC50 at 48 h) given entry CC(C)C(=O)Nc1ccc([N+](=O)[O-])c(C(F)(F)F)c1 [Flutamide, flutamide]
Result string: 1.23

====

test system: P450 Mix: CYP2C9, CYP2D6, CYP3A4, CYP1A2, CYP2E1 (expressed); assay: TeamChip metabolism-induced toxicity assay, P450 Mix; type: cell-based; conditions: human
For each record, check the reported IC50 at 48 h: if it is below 50 µM write t, else write f.

Would you please look over these solved cases?
{"compound": "CC(C)C(=O)Nc1ccc([N+](=O)[O-])c(C(F)(F)F)c1 [Flutamide, flutamide]", "cat": "t"}
{"compound": "CN1CCN(CCCN2c3ccccc3Sc3ccc(C(F)(F)F)cc32)CC1", "cat": "f"}

Query string: Determine if Nc1c(CC(=O)O)cccc1C(=O)c1ccc(Br)cc1 shows IC50 at 48 h strictly lower than 50 µM.
Result string: f

Query string: Determine if CC(=O)Nc1ccc(O)cc1 shows IC50 at 48 h strictly lower than 50 µM.
Result string: f
